Cited source for all entries: paper PMC4358968

targetOfAssay: EgAgB8/2 (antigen B subunit 2) (Echinococcus granulosus)
Construct: recombinant lipid-free (RP-HPLC delipidated) EgAgB8/2 mature subunit, GST fusion cleaved with thrombin; GenBank AAC47169
assayProcedure: fluorimetric titration of 12-AS (direct probe binding, […]°C, TBS)
pKd: −log10 of the molar value.
reportedEndpoint: pKd

compound: CCCCCCC(CCCCCCCCCCC(=O)O)OC(=O)c1c2ccccc2cc2ccccc12 (stereo not shown)
reportedEndpoint: pKd
testResult: 6.80
